// 3CLpro of SARS-CoV-2 (Severe acute respiratory syndrome coronavirus 2) IC50 records

CCCCCCCC/C=C\CCCc1cc(O)cc(O)c1 [Compound 7, (Z)-5-(trideca-4-enyl)resorcinol] tested on 3CLpro of SARS-CoV-2 (Severe acute respiratory syndrome coronavirus 2) gave IC50: > 100 µM

`CCCCCCCCCCCc1cc(O)cc(O)c1` tested on 3CLpro of SARS-CoV-2 (Severe acute respiratory syndrome coronavirus 2) gave IC50: > 100 µM

`CCCCCCCCCCCCCCc1cc(O)cc(O)c1` tested on 3CLpro of SARS-CoV-2 (Severe acute respiratory syndrome coronavirus 2) gave IC50: > 100 µM
